value-type: melting point

Previously resolved entries follow.
compound: O=C(NC1CCOCC1)c1cnccc1C(F)(F)F
melting point: 149 to 150 °C

compound: O=C(NC1CCS(=O)(=O)CC1)c1cnccc1C(F)(F)F
melting point: 248 °C (dec.)

compound: O=C(NC1CC[S+]([O-])CC1)c1cnccc1C(F)(F)F (stereo not shown)
melting point: 243 to 244 °C

Query compound follows.
Report melting point for CC1(C)OCC(NC(=O)c2cnccc2C(F)(F)F)CO1 please. 155 to 156 °C
